Test system: Ca9-22 (Head and Neck Carcinoma)
ASSAY NAME: combination Emax (second highest fraction inhibited in the dose matrix, 72 h); higher = more inhibition; extreme values may be limits of the assay
MEASURED ENDPOINT: combination Emax

• COc1cccc(OCCCN)c1-c1cc(Nc2cnc(C#N)cn2)n[nH]1 [Prexasertib] + CCc1c2c(nc3ccc(O)cc13)-c1cc3c(c(=O)n1C2)COC(=O)[C@]3(O)CC [SN-38] (first compound max 1 µM, 7x7, partner max 0.3 µM) = 0.985
• C[C@@H](Nc1cc(F)cc(F)c1)c1cc(C(=O)N(C)C)cc2c(=O)cc(N3CCOCC3)oc12 [AZD8186] + C1CN(CCC1(C(=O)N[C@@H](CCO)C2=CC=C(C=C2)Cl)N)C3=NC=NC4=C3C=CN4 [AZD5363] (first compound max 10 µM, 7x7, partner max 10 µM) = 0.296
